System: LCLC-97TM1
Assay: relative viability (nuclei count vs DMSO), 5 days (fraction); higher = more cells survive
Details: first compound 0.8 µM
QUANTITY KIND: relative viability
Numbers only.

Solved entries:
COc1nc(C)cnc1NS(=O)(=O)c1cccnc1-c1ccc(-c2nnco2)cc1 [Zibotentan] + CCNC(=O)c1noc(-c2cc(C(C)C)c(O)cc2O)c1-c1ccc(CN2CCOCC2)cc1 [Luminespib] (partner 0.01 µM) :: 0.927
O=c1cc(-c2cccc3c2Sc2ccccc2S3)oc(N2CCOCC2)c1 + NC(=O)Nc1cc(-c2cccc(F)c2)sc1C(=O)N[C@H]1CCCNC1 [AZD7762] (partner 0.2 µM) :: 0.265
O=c1cc(-c2cccc3c2Sc2ccccc2S3)oc(N2CCOCC2)c1 + CS(=O)(=O)N1CCN(Cc2cc3nc(-c4cccc5[nH]ncc45)nc(N4CCOCC4)c3s2)CC1 [Pictilisib] (partner 1 µM) :: 0.208
O=c1cc(-c2cccc3c2Sc2ccccc2S3)oc(N2CCOCC2)c1 + Cc1nc(Nc2ncc(C(=O)Nc3c(C)cccc3Cl)s2)cc(N2CCN(CCO)CC2)n1 [Dasatinib] (partner 0.075 µM) :: 0.956
O=c1cc(-c2cccc3c2Sc2ccccc2S3)oc(N2CCOCC2)c1 + COc1cc2c(Oc3ccc(NC(=O)C4(C(=O)Nc5ccc(F)cc5)CC4)cc3F)ccnc2cc1OCCCN1CCOCC1 [Foretinib] (partner 0.25 µM) :: 0.977

// each listed compound needs a value for relative viability
1. COc1nc(C)cnc1NS(=O)(=O)c1cccnc1-c1ccc(-c2nnco2)cc1 [Zibotentan] + CC(=O)Nc1cccc(-n2c(=O)n(C3CC3)c(=O)c3c(Nc4ccc(I)cc4F)n(C)c(=O)c(C)c32)c1 [Trametinib] (partner 0.02 µM)
2. O=c1cc(-c2cccc3c2Sc2ccccc2S3)oc(N2CCOCC2)c1 + Nc1nc2[nH]cc(CCc3ccc(C(=O)N[C@@H](CCC(=O)O)C(=O)O)cc3)c2c(=O)[nH]1 [Pemetrexed] (partner 0.2 µM)
3. COc1nc(C)cnc1NS(=O)(=O)c1cccnc1-c1ccc(-c2nnco2)cc1 [Zibotentan] + Cc1nc(Nc2ncc(C(=O)Nc3c(C)cccc3Cl)s2)cc(N2CCN(CCO)CC2)n1 [Dasatinib] (partner 0.075 µM)
4. COc1nc(C)cnc1NS(=O)(=O)c1cccnc1-c1ccc(-c2nnco2)cc1 [Zibotentan] + CC(C)C[C@H](NC(=O)[C@H](Cc1ccccc1)NC(=O)c1cnccn1)B(O)O [Bortezomib] (partner 0.002 µM)

Key:
1: 0.198; 2: 0.18; 3: 0.882; 4: 0.657

Origin of measurements: the supplement of paper PMC10307832
